# AUC per record follows
- assay.procedure: AUC in mouse at 10 mg/kg, po
- Format: ADME, organism-based
- condition.context: in vivo
Lab book: enter the figure in µM·h, no units written.

| smiles.text | scale.unit | AUC |
| --- | --- | --- |
| CCCSc1nc(=O)cc(O)n1-c1ccccc1OC | µM·h | 29 |

Lab note: `CCCCc1nc(=O)cc(O)n1-c1c(C)cccc1OC` gave AUC of 10.2

---

# IC50 per record follows
- study.target: CYP450 (isoform not stated) (Homo sapiens, UniProt P04798+P05177+P05181+P08684+P10632+P10635+P11509+P11712+P13584+P20813+P20815+P20853+P24462+P24903+P33260+P33261+P51589+P78329+P98187+Q02928+Q08477+Q16678+Q16696+Q5TCH4+Q6VVX0+Q7Z449+Q8TAV3+Q96SQ9+Q9HB55)
- assay.procedure: Inhibition of CYP450 (unknown origin)
- Assay type: ADME, protein assay

| smiles.text | IC50 |
| --- | --- |
| CCCCc1nc(=O)cc(O)n1-c1c(C)cccc1OC | > 20 µM |

# next molecule below
Lab note: `CCCSc1nc(=O)cc(O)n1-c1ccccc1OC` gave IC50 of > 20 µM

Where these numbers come from: ChEMBL document CHEMBL4616620
